test-summary: Pharmacokinetic measurements in rats (intravenous and intra-tracheal dosing)
Type: in vivo
experimental-setup: male, CD, lung, iv; rat, i.v. dosing, 1.5 h; read-out: lung concentration (nM) at time (h)
Parameter concentration at 1.5 h: see the listing below.
measurement-type: concentration at 1.5 h (nM)

smiles-string	measurement-type	measurement-unit	test-value
COC(=O)c1ccc2c(c1)NC(=O)/C2=C(\Nc1ccc(C(=O)NOCCN(C)C)cc1)c1ccccc1	concentration at 1.5 h	nM	325
COC(=O)c1cc2c(cc1C)/C(=C(/Nc1ccc(C(=O)NOCCN(C)C)c(C)c1)c1ccccc1)C(=O)N2	concentration at 1.5 h	nM	251
COC(=O)c1cc2c(cc1C)/C(=C(/Nc1ccc(C(=O)NOCCN3CCN(C)CC3)cc1)c1ccccc1)C(=O)N2	concentration at 1.5 h	nM	1880
COC(=O)c1cc2c(cc1C)/C(=C(/Nc1ccc(C(=O)NOCCN3CCN(CCO)CC3)cc1)c1ccccc1)C(=O)N2	concentration at 1.5 h	nM	172
COC(=O)c1ccc2c(c1)NC(=O)/C2=C(\Nc1ccc(S(=O)(=O)NOCCN(C)C)cc1)c1ccccc1	concentration at 1.5 h	nM	209
COC(=O)c1ccc2c(c1)NC(=O)/C2=C(\Nc1ccc(C(=O)NOCCN2CCN(C)CC2)cc1)c1ccccc1	concentration at 1.5 h	nM	266
